# conditionDescription: in n-butanol, 307.4 K
readoutName: solubility (mole fraction)
Kindly provide the number alone.

solubility (mole fraction) in this record for `CCn1c2ccccc2c2cc(-n3nncc3-c3ccccc3)ccc21` : 0.00221

###

# conditionDescription: in ethanol, 318.9 K
readoutName: solubility (mole fraction)
Kindly provide the number alone.

solubility (mole fraction) in this record for `CCn1c2ccccc2c2cc(-n3nncc3-c3ccccc3)ccc21` : 0.00222

###

# conditionDescription: in methanol, 288.2 K
readoutName: solubility (mole fraction)

solubility (mole fraction) in this record for `CCn1c2ccccc2c2cc(-n3nncc3-c3ccccc3)ccc21` : 0.000591

###

# conditionDescription: in acetonitrile, 304.8 K
readoutName: solubility (mole fraction)
Kindly provide the number alone.

solubility (mole fraction) in this record for `CCn1c2ccccc2c2cc(-n3nncc3-c3ccccc3)ccc21` : 0.00485

These data points were gathered from BigSolDB 2.1.
